DGI-2 (OD) values for the binders below.
Target system: T1, DGI-2 polypeptide (UniProt Q15004 1-111, limits assumed)
T1 construct: Soluble recombinant protein coated at 500 ng/well; vector tag of pIVEX2.3-MCS not described for this construct; also called KIAA0101
T1 sequence (looked up): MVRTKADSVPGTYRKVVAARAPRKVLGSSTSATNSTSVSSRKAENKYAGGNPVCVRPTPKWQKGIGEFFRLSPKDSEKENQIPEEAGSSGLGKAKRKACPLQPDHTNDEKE
Assay info: phage ELISA
Write down the numeric answer in OD and omit the unit.

As a guide, the following entries are already answered.
Kindly note the recorded DGI-2 (OD) for VVRQGCMAFSGLCSGVTESEAAAGAPVPYPDPLEPRP [DGI-2-20R-3-C8] , which is 5.6

Entry VWRDWVNGTVGLRNREKPGVAAAGAPVPYPDPLEPRP [DGI-2-20R-3-A5] , DGI-2 (OD) reported as 10.9

Noted for VCGQRVARMQLNKTIRKLDSAAAGAPVPYPDPLEPRP [DGI-2-20F-PP-A6] : its DGI-2 (OD) reads 3.1

More entries:
# DGI-2 (OD) of CYLSRLFRSGQGIGQFGHVEAAAGAPVPYPDPLEPRP [DGI-2-20F-PP-A82] = 2.5

Summary for this binder, SLFERSARSRYHGSPDCNGSAAAGAPVPYPDPLEPRP [DGI-2-20F-PP-A3] : DGI-2 (OD) is 2.8

So for RKGWGVFCIPGLRFCDWSDPAAAGAPVPYPDPLEPRP [DGI-2-20R-3-B4] , the logged DGI-2 (OD) turned out to be 8.4
